# SYSTEM: rat MCH1 receptor (Rattus norvegicus)
# Construct: expressed in transfected cells; host or cells: Human embryonic kidney Peak rapid 293 cells (Peakr293), transient, calcium phosphate; membranes
# Sequence (P97639 whole entry): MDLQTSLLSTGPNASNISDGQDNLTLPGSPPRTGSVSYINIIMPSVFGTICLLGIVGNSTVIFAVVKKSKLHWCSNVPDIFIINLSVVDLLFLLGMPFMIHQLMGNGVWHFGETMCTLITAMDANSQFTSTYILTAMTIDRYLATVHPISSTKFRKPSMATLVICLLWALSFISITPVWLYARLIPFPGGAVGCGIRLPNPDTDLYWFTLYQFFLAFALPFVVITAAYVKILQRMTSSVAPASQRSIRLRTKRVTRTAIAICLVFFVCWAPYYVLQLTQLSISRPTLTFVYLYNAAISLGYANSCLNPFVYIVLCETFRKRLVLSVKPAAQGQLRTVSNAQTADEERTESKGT
# METHOD_DESCRIPTION: Radioligand binding assay at cloned rat MCH1 receptor ([3H]Compound A displacement)
# SETTINGS: KI, cloned rat MCH1, membranes of transfected Peakr293 cells, 0.08 nM [3H]Compound A, 25° C., 90 minutes
Below, each entry is listed alongside its reported pKi.
By convention, pKi is the negative base-10 log of a molar concentration.

Problem: Dear colleague, please send me the reported pKi for O=C(NCCCN1CCC2(CC1)OCc1ccccc12)C1(c2ccc(F)cc2)CCCC1 when you can.
Result: 6.29

Problem: For the compound O=C(NCCCN1CCC2(CC1)OCc1ccccc12)C(c1ccccc1)(c1ccccc1)c1ccccc1 , give its measured pKi value.
Result: 6.82

Problem: Tell me pKi reported for CC(C)(C(=O)NCCCN1CCC2(CCc3ccccc32)CC1)c1ccc(Cl)cc1
Result: 7.08

Problem: Give the reported pKi for this compound. O=C(NCCCN1CCC2(C=Cc3ccccc32)CC1)C(c1ccccc1)(c1ccccc1)c1ccccc1
Result: 7.44

Problem: Name the recorded pKi of the compound listed here: S=C(NCCCCN1CCC2(CCc3ccccc32)CC1)Nc1cccc2ccccc12
Result: 6.09

Next:
Problem: Give the value of pKi reported for the following: O=C1c2ccccc2C(=O)N1CCCCN1CCC2(C=Cc3ccccc32)CC1
Result: 6.09

Problem: For O=C(NCCCN1CCC2(CC1)OCc1ccccc12)C(c1ccc(F)cc1)c1ccc(F)cc1 , write its pKi.
Result: 8.31

Problem: Write down pKi measured for item O=C(NCCCN1CCC2(CCc3ccccc32)CC1)C(c1ccccc1)(c1ccccc1)c1ccccc1
Result: 6.92

Problem: // Input: O=C(NCCCCCCN1CCC2(CCc3ccccc32)CC1)C(c1ccccc1)c1ccccc1 . Output its pKi only.
Result: 6.14

Problem: Consider the compound O=C(NCCCCN1CCC2(CCc3ccccc32)CC1)Nc1cc(Cl)cc(Cl)c1 . State its measured pKi.
Result: 6.29

Problem: Identify measured pKi associated with O=C(NCCCN1CCC2(CC1)OCc1ccccc12)C1(c2ccc(F)cc2)CCCCC1
Result: 6.76

Problem: Using known records, supply pKi for O=C(Cc1ccc(F)c(F)c1)NCCCN1CCC2(CC1)OCc1ccccc12
Result: 6.42

Problem: State its pKi for this compound: O=C(NCCCCCN1CCC2(CCc3ccccc32)CC1)C(c1ccccc1)c1ccccc1
Result: 6.42

----------
# SYSTEM: rat MCH1 receptor (Rattus norvegicus)
# Construct: expressed in transfected cells; host or cells: Human embryonic kidney Peak rapid 293 cells (Peakr293), transient, calcium phosphate; membranes
# METHOD_DESCRIPTION: Radioligand binding assay at cloned rat MCH1 receptor ([3H]Compound A displacement)
# SETTINGS: cloned rat MCH1, membranes of transfected Peakr293 cells, 0.08 nM [3H]Compound A, 25° C., 90 minutes; read-out: KI
# reported pKi; entries follow
pKi is defined as minus the log10 of a concentration measured in mol/L.

// worked examples, pKi included
Problem: Given the compound O=C(NCCCCN1CCC2(CCc3ccccc32)CC1)c1cccnc1Oc1ccc(Cl)cc1 [Example 32] , write its reported pKi.
Result: 6.41

Problem: Look up and state reported pKi for O=C(NCCCCCCN1CCC2(CCc3ccccc32)CC1)c1cccnc1Oc1ccc(Cl)cc1 [Example 33]
Result: 6.37

Problem: Identify measured pKi associated with O=C(NCCCN1CCC2(CCc3ccccc32)CC1)C1(c2ccc(Cl)cc2)CCCC1 [Example 52]
Result: 6.95

Consider the record given below.
Problem: Please look at this compound and report its pKi: O=C(NCCCCCN1CCC2(CCc3ccccc32)CC1)Nc1ccc(-c2ccccc2)cc1 [Example 27]
Result: 6.18

Measured values drawn from patent US7335665B2 for this set.
